# Test system: HDQ-P1
# assay remarks: Induction of P53 expression in human HDQ-P1 cells assessed as enrichment ratio at 10 uM incubated for 72 hrs in presence of 50 uM G418 by automated electrophoresis western analysis
# Format: functional
Entry flag: condition met if Ratio reaches 20; condition not met if it does not.

Is the recorded value of Ratio equal to or greater than 20 for this molecule? O=C(Nc1ccc2c(c1)OCCO2)c1csc(Nc2cccc3[nH]ncc23)n1
condition not met

Record: O=C(Nc1ccc2c(c1)OCCO2)c1csc(Nc2ccc(=O)[nH]c2)n1
condition not met

Record: CSc1ccc(NC(=O)c2csc(Nc3cccc4[nH]ncc34)n2)cc1
condition not met

Record: O=C(Nc1ccc2c(c1)OCO2)c1csc(Nc2ccc3ncccc3c2)n1
condition not met

We now examine a further molecule.
Is the recorded value of Ratio equal to or greater than 20 for this molecule? O=C(Nc1ccc(F)cc1)c1csc(Nc2cccc3[nH]ncc23)n1
condition met

---

# Test system: HDQ-P1
# assay remarks: Induction of P53 expression in human HDQ-P1 cells assessed as enrichment ratio at 3 uM incubated for 72 hrs in presence of 50 uM G418 by Hoechst 33323 staining based fluorescence assay
# Type: functional
property label: Ratio
Respond using a number only.

Some compounds with recorded Ratio:
Under HDQ-P1: Ratio value of O=C(Nc1ccc2[nH]ncc2c1)c1csc(Nc2ccc3[nH]ccc3c2)n1 ?
1.4

Record: O=C(Nc1ccc2c(c1)OCO2)c1csc(Nc2ccc3ncccc3c2)n1
3.5

Record: COc1ccc(NC(=O)c2cnc(Nc3ccc4[nH]ncc4c3)s2)cn1
2.2

Record: COc1cc(NC(=O)c2csc(Nc3cccc4[nH]ncc34)n2)cc(OC)c1OC
5.3

Record: O=C(Nc1ccc2[nH]ccc2c1)c1csc(Nc2ccc3[nH]ncc3c2)n1
1.3

New cases:
Under HDQ-P1: Ratio value of COc1ccc(NC(=O)c2csc(Nc3cccc4[nH]ncc34)n2)cc1 ?
1.6

Record: CSc1ccc(NC(=O)c2csc(Nc3cccc4[nH]ncc34)n2)cc1
8.2

Record: O=C(Nc1ccc2c(c1)OCO2)c1cnc(Nc2ccc3[nH]ncc3c2)s1
1.2

Record: O=C(Nc1ccc2c(c1)OCCO2)c1csc(Nc2cccc3[nH]ncc23)n1
3.4

Record: CSc1ccc(NC(=O)c2cnc(Nc3ccc4[nH]ncc4c3)s2)cc1
1.6

---

# Test system: HDQ-P1
# assay remarks: Induction of P53 expression in human HDQ-P1 cells assessed as enrichment ratio at 3 uM incubated for 72 hrs in presence of 50 uM G418 by Hoechst 33323 staining based fluorescence assay
# Format: functional
Entry flag: true (1) if Ratio reaches 2; false (0) if it does not.

Reference set, count: 5
Is the recorded value of Ratio equal to or greater than 2 for this compound? O=C(Nc1ccc(F)cc1)c1csc(Nc2cccc3[nH]ncc23)n1
true (1)

Record: O=C(Nc1ccccc1)c1csc(Nc2ccc3[nH]ncc3c2)n1
true (1)

Record: O=C(Nc1ccc2c(c1)OCO2)c1csc(Nc2ccc3[nH]ncc3c2)n1
false (0)

Record: O=C(Nc1ccc2c(c1)OCCO2)c1csc(Nc2ccc3ncccc3c2)n1
false (0)

Record: O=C(Nc1ccc2c(c1)OCCO2)c1csc(Nc2ccc(=O)[nH]c2)n1
true (1)

We now examine a further compound.
Is the recorded value of Ratio equal to or greater than 2 for this compound? COc1ccc(NC(=O)c2csc(Nc3cccc4[nH]ncc34)n2)cn1
false (0)

Entry source: ChEMBL document CHEMBL4396882
